# credit: ChEMBL document CHEMBL4619713

Measured pIC50 (cGMP-specific 3',5'-cyclic phosphodiesterase (Homo sapiens, UniProt O76074))
Give bare numbers, as −log10 of the molar value.

# structure smiles, quantity, measured number
records = [
    ("CCCCn1c2c(c3c(O)cc(O)cc31)CCn1c-2nc2ccccc2c1=O", "pIC50", 6.59),
    ("COc1cc(OC)c2c3c([nH]c2c1)-c1nc2ccccc2c(=O)n1CC3", "pIC50", 4.34),
    ("CCCCn1c2c(c3ccc(O)cc31)CCn1c-2nc2ccccc2c1=O", "pIC50", 6.20),
]

// batch mode: one pIC50 value per listed entry
1. CCn1c2c(c3ccc(O)cc31)CCn1c-2nc2ccccc2c1=O
2. COc1cc(OC)c2c3c(n(CCC(C)C)c2c1)-c1nc2ccccc2c(=O)n1CC3
3. CCCn1c2c(c3ccccc31)CCn1c-2nc2ccccc2c1=O
4. COc1ccc2c3c([nH]c2c1)-c1nc2ccccc2c(=O)n1CC3
5. CCCCn1c2c(c3ccccc31)CCn1c-2nc2ccccc2c1=O

6.01
4.74
5.77
4.66
5.95

Need pIC50, item O=c1c2ccccc2nc2n1CCc1c-2[nH]c2cc(O)cc(O)c12 6.10
